Hello, the source for this data is PubChem BioAssay (NCI), in case you need it.

Tested on: SF-539 CNS
Assay: NCI tumour cell line growth inhibition, 48 h; in the data active means GI50 below about 0.43 µM; inactive means the rest
Pick one: active, inactive

INSERT INTO measurements (compound, class_label) VALUES
  ('NC1CCC(Nc2nc(NCc3ccc(-c4cccs4)nc3)c3ncn(C4CCCC4)c3n2)CC1 (stereo not given)', 'active'),
  ('O=C(c1ccccc1)c1ccc(Oc2ccc([N+](=O)[O-])cc2[N+](=O)[O-])cc1', 'inactive'),
  ('c1cc2[nH]ncc2cc1-c1nc2ccc3[nH]ncc3c2c2c1CCCC2', 'inactive'),
  ('Clc1cccc(Cl)c1C1CSc2ccccc2N=C1c1ccccc1 (stereo not given)', 'inactive'),
  ('COc1cc2nc(SCC(=O)Nc3cc(OC)c(OC)c(OC)c3)n(Cc3ccccc3)c(=O)c2cc1OC', 'inactive'),
  ('COc1ccc2c(CN3CCC(C(=O)O)CC3)cc3cc4c(cc3c2c1)OCO4', 'inactive');

[Q] Hi team, can someone confirm the assay call for `O=C1Nc2c(C(F)(F)F)cccc2[C@@]1(c1ccc(O)cc1)c1ccc(OC(F)(F)F)cc1` ?
[A] active

[Q] Hi team, can someone confirm the assay call for `Nc1nc2c(s1)CCc1c-2c(Br)n(Cc2ccccc2)c1Br` ?
[A] inactive

[Q] Hi team, can someone confirm the assay call for `COc1ccc2c(c1)[n+](=O)c(C(=O)c1ccco1)c(C(F)(F)F)n2[O-]` ?
[A] inactive

[Q] Hi team, can someone confirm the assay call for `O=[N+]([O-])c1ccccc1N/N=C\c1c[nH]c2ccccc12` ?
[A] inactive
